method summary: NCI Yeast Anticancer Drug Screen. Data for the bub3 strain (AID 167)
condition parameters: S. cerevisiae bub3 mutant strain, at 50.0 µM, stronger effect = higher value
Protocol: Growth inhibition of yeast strains with defined genetic alterations is measured as a screen for potential anti-cancer activity. Selected strains with alterations in DNA damage repair or cell cycle control were exposed to compounds and growth inhibition was measured relative to vehicle treated controls. The strain used in this assay is bub3
This is part of a sample that, as a whole, favours compounds with a hit. Of some 79,000 tested, about 15% had one in any assay.
Please mark 1 if the recorded growth inhibition is equal to or greater than 10%, and 0 if it falls below.

                                    compound  class_assignment
 0  C=C1C(=C)C2C=CC1C1C3C(c4ccccn4)=NN=C(c4ccccn4)C3C21 (stereo not drawn)                 1
 1     C=CCC[P+](c1ccccc1)(c1ccccc1)c1ccccc1                 0
 2        Brc1ccc(CN(Cc2ccccc2)Cc2ccccc2)cc1                 1
 3  Cc1cc(=O)[nH]c2ccc(-c3ccc4[nH]c(=O)cc(C)c4c3)cc12                 1
 4              CCOC(=O)C(Br)(C(=O)OCC)C(C)C                 1
 5                Cc1cc(=O)n2c3c(cccc13)CCC2                 0
 6  Cc1cn(C2CC(N(C)C)C(CO)O2)c(=O)[nH]c1=O (stereo not drawn)                 0
 7  CCc1cccc(C)c1NC(=O)C(=O)CC(=O)c1ccc(Cl)cc1Cl                 0
 8  CCC1(CC)C(=O)N(C(=O)c2cc(OC)c(OC)c(OC)c2)N(C(=O)c2cc(OC)c(OC)c(OC)c2)C1=O                 0
 9  CC(=O)/C(=C\n1c(=S)[nH]c2ccc([N+](=O)[O-])cc21)C(=O)Nc1ccccc1C                 0
10                  C=CCOC(=O)OCCOC(=O)OCC=C                 1
11  Cn1c(=O)c2c(ncn2CCSCC2=NS(=O)(=O)c3cc(S(N)(=O)=O)c(C(F)(F)F)cc3N2)n(C)c1=O                 1
12  Cc1coc2c1C1OC(=O)C3(C/C=C\C(C)C2)OC13 (stereo not drawn)                 0
13  C=C1C(=O)OC2CCCC(O)C12 (stereo not drawn)                 0
14       CC1(C)OC(=O)C(=Cc2ccc(O)cc2)C(=O)O1                 0
15   Cc1c(-c2nc(N)nc(C3CC3)c2C)nc(N)nc1C1CC1                 0
16          CCCCCCCCCCCCCCCCc1c(C)ncn(C)c1=O                 0
17          CCCC(C)C(O)CC (stereo not drawn)                 0
18            CC(=O)Oc1cc2c(c3ccccc13)CCC2=O                 1
19  Cc1cc2c(cc1C)[n+](=O)c(C(=O)CC(=O)C(=O)Nc1ccccc1C(C)C)c(C)n2[O-]                 0
20  O=C(Nc1ccc([N+](=O)[O-])cc1Cl)c1ccc(C(=O)Nc2ccc([N+](=O)[O-])cc2Cl)cc1                 0
21                    N/C(=N/N=C/C1CCCCC1)NO                 0

###

method summary: NCI Yeast Anticancer Drug Screen. Data for the mec2-1 strain (AID 157)
condition parameters: S. cerevisiae mec2-1 strain, at 50.0 µM
The panel holds about 79,000 compounds, 15% with a hit somewhere; the sample as a whole holds those more often. Calls of active or inactive are those of the source. Cut-off read from the data, not from the text of the source: active = growth inhibition above about 70%; inactive = the rest.
Outcome codes: active, inactive

>>> df
                                    molecule  class_assignment
 0  CC(=O)NC(=O)NC1=NCCC(=O)N1CCc1c[nH]c2ccccc12          inactive
 1     COCC(C)(CO)CC(C)CO (stereo not drawn)          inactive
 2      CCCCCCCC/C=C\CCCCCCCC(=O)NCCN1CCCCC1            active
 3    NC(=O)NCCSC1CCCCC1O (stereo not drawn)          inactive
 4          CCc1cccc(CC)c1Nc1nc(C)nc2c1cnn2C          inactive
 5  CCCCNc1nc(NC2OCC(OC(C)=O)C(OC(C)=O)C2OC(C)=O)c(N=O)c(=O)n1C (stereo not drawn)          inactive
 6  CCOC(=O)CS(=O)(=O)C1CCCCC1c1cc(OC)c(OC)c(OC)c1 (stereo not drawn)          inactive
 7             COC(=O)c1ccccc1NN=Nc1ccccc1Cl          inactive
 8       O=C(Cl)c1cccc2c([N+](=O)[O-])cccc12          inactive
 9        CC(=O)OC1=CC(=O)N(C(=O)c2ccccc2)C1          inactive
10            COC(=O)c1ccccc1S(=O)(=O)NC(C)C          inactive
11                  CCOP(=Nc1ccccc1)(OCC)OCC          inactive
12  O=C1NC(O)c2cccc([N+](=O)[O-])c2O1 (stereo not drawn)          inactive

###

method summary: NCI Yeast Anticancer Drug Screen. Data for the sgs1 mgt1 strain (AID 161);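 also: 0% = growth of cultures given vehicle only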
condition parameters: S. cerevisiae sgs1 mgt1 strain, at 50.0 µM
The panel holds about 79,000 compounds, 15% with a hit somewhere; the sample as a whole holds those more often. Active and inactive are the calls of the source. No stated cut-off is given here; in the data, active means growth inhibition above about 70%; inactive means the rest.
Classes used: active, inactive

>>> print(df.to_string())
                                    compound  class_assignment
 0      COC1=CC(=O)C(c2cc(O)c(OC)cc2O)=CC1=O          inactive
 1              O/N=C1\c2ccccc2-c2cccc(I)c21          inactive
 2                             SCCNCc1ccccn1          inactive
 3  CCCCNc1nc(NC2OCC(OC(C)=O)C(OC(C)=O)C2OC(C)=O)c(N=O)c(=O)n1C (stereo not drawn)          inactive
 4  O=c1c2ccccc2nc(-c2ccccc2Cl)n1/N=C/c1ccc(Cl)cc1Cl          inactive
 5  COc1ccc(/C=C2/CSC/C(=C/c3ccc(OC)c(OC)c3)C2=O)cc1OC          inactive
 6  C[C@@H](Oc1ccc(Oc2cnc3ccc(Cl)cc3n2)cc1)C(=O)O          inactive
 7  O=C(OCC(O)C(O)C(O)C(SCc1ccccc1)SCc1ccccc1)c1ccc([N+](=O)[O-])cc1 (stereo not drawn)          inactive
 8  CC(O)CNCc1ccc(N(C)C)cc1 (stereo not drawn)          inactive
 9                     NC(=O)C(F)(F)c1ccccc1          inactive
10                   NC(=O)CN(CC(N)=O)C(N)=O          inactive
11          COc1ccc(Nc2cnc3cc(N)ccc3n2)cc1OC          inactive
12  CC(=O)OC1CCC2(C)C(=CC=C3C4CCC(=O)NC4(C)CCC32)C1 (stereo not drawn)          inactive
13              CCNc1nc(C)nc2c1cnn2-c1ccccc1          inactive
14                  O=C(N/N=C/c1ccccc1)C1CC1          inactive
15  CCCC1=NC(C(F)(F)F)(C(F)(F)F)N=C(N2CCOCC2)O1          inactive
16               O=C(NCC1CC1)Nc1cccc2ccccc12          inactive
17  CCS(=O)(=O)C(S(C)(=O)=O)S(=O)(=O)C(C)C (stereo not drawn)          inactive
18                               CCN(CC)CCCO          inactive
19  CCOC1C[C@H]2C[C@H]3[C@@H]4CC=C5C[C@@H](OC(C)=O)CC[C@]5(C)[C@H]4CC[C@]3(C)C2=C(C)O1 (stereo partly drawn)          inactive
20  CCCCC(CC)COB(OCC(CC)CCCC)OCC(CC)CCCC (stereo not drawn)          inactive
21                         CC(=O)NN(C)C(C)=O          inactive
22                              CC1=C(C)OCC1          inactive
23                        CSc1ccccc1C(C)(C)O          inactive
24  Cc1ccc(N2C(=O)ON(c3ccccc3)C2c2ccccc2)cc1 (stereo not drawn)          inactive
25  CCCCCCCN1C(=O)C(O)(c2ccc(C3(O)C(=O)N(CCCCCCC)c4ccccc43)s2)c2ccccc21 (stereo not drawn)          inactive
26  SC1c2cc(Cl)ccc2-c2c(Cl)cc(Cl)cc21 (stereo not drawn)          inactive
27  O=c1[nH]c(=S)[nH]c2ncn(C3OC(CO)C(O)C3O)c12 (stereo not drawn)          inactive
28  O=C(OC1C#CCSCC#C/C=C\1)c1ccc2c(c1)C(=O)c1ccccc1C2=O (stereo not drawn)          inactive
29          Nc1nc(N)nc(CCCCc2nc(N)nc(N)n2)n1          inactive
30  CC(=O)NCC1OC2COC(c3ccccc3)OC2C2N=C(c3ccccc3)OC12 (stereo not drawn)          inactive
31          COS(=O)(=O)C=C(c1ccccc1)c1ccccc1          inactive
32   COc1ccc(C(=O)c2cc(OC)c(OC)c(OC)c2)cc1OC          inactive
33  CC(=O)c1cccc(NC(=O)C(=O)C(C2OC(=O)c3ccccc32)[N+](=O)[O-])c1 (stereo not drawn)          inactive
34  COc1ccc(/C(=N/NC(=O)NN)C(c2ccc(OC)cc2)C2(O)CNc3c(Cl)cc(Cl)cc32)cc1 (stereo not drawn)          inactive
35  Cn1c(=S)c2[nH]c(SCCCc3ccccc3)nc2n(C)c1=O          inactive
36  NNC(=O)CCC(=O)NC1C2CC3CC(C2)CC1C3 (stereo not drawn)          inactive
37  Cc1[nH]c2ccccc2c1C(c1cc(Cl)cc(Cl)c1O)c1c(C)[nH]c2ccccc12          inactive
38               N#CCN(CCc1ccccc1)CCc1ccccc1          inactive
39  CS(=O)CC(=N\N)/C(CS(C)=O)=N/N (stereo not drawn)          inactive
40       CSC(=N\N=C\c1c(F)cccc1Cl)/N=C/N(C)C          inactive
41  CCOC(=O)C1Cc2c([nH]c(=O)[nH]c2=O)OC1c1ccc(OC)cc1 (stereo not drawn)          inactive
42  COc1cc(CNc2ccc3nc4n(c(=O)c3c2)CCCCC4)cc(OC)c1OC          inactive
43  CCOC(=O)c1ccc(NC(NC(=O)CC)(C(F)(F)F)C(F)(F)F)cc1          inactive
44  Oc1c(Br)cc(Br)cc1/C=N/c1nc(-c2ccccc2)cs1            active
45  NC(CC1C(=O)Nc2ccccc21)C(=O)O (stereo not drawn)          inactive
46            C[N+]1(C)N=C(c2ccccc2)C=C1[O-]          inactive
47    COc1ccc2oc3c(C)cc4c(OC)nnc(OC)c4c3c2c1          inactive
